- System: OVCAR-5 ovarian
- methodNotes: NCI tumour cell line growth inhibition, 48 h
Listed here: items and their measured TGI.

Here are 5 molecules together with their reported answers.
{"molecule": "COC(=O)CCC(=O)NC1C2CC3CC(C2)CC1C3 (stereo unspecified)", "TGI": "> 100 µM"}
{"molecule": "O=[N+]([O-])c1ccc(S(=O)(=O)Cc2ccccc2)c2nonc12", "TGI": "> 100 µM"}
{"molecule": "CCN(CC)CCOc1ccc(C(=O)/C=C\\c2ccc(Cl)cc2Cl)cc1", "TGI": "27.2 µM"}
{"molecule": "COc1cc2oc(=O)ccc2cc1CC=C(C)C", "TGI": "> 100 µM"}
{"molecule": "COc1ccc2nc(NC(=O)c3cccnc3Nc3cc(OC)c(OC)c(OC)c3)sc2c1", "TGI": "29 µM"}

**Query** Give recorded TGI. C/C=C/[C@H](O[Si](C)(C)C(C)(C)C)[C@@H](O)/C=C/C(=O)OCC
**Result** 79.5 µM

**Query** Give recorded TGI. CCc1n[nH]c(=O)n1CCO
**Result** > 100 µM
